target: c-kit (Homo sapiens, UniProt P10721); construct: MO7e (human megakaryocytic leukemia cell line) which had been arrested for 20 hr; endogenous in cells; host or cells: MO7e human megakaryocytic leukemia cell line; assay: Inhibitory activity against c-kit autophosphorylation (MO7e cells, h-SCF); format: cell-based; settings: Mo7e, figure within parentheses in −( ) or >1000( ); at 1000 nM
Sequence (P10721 26-976): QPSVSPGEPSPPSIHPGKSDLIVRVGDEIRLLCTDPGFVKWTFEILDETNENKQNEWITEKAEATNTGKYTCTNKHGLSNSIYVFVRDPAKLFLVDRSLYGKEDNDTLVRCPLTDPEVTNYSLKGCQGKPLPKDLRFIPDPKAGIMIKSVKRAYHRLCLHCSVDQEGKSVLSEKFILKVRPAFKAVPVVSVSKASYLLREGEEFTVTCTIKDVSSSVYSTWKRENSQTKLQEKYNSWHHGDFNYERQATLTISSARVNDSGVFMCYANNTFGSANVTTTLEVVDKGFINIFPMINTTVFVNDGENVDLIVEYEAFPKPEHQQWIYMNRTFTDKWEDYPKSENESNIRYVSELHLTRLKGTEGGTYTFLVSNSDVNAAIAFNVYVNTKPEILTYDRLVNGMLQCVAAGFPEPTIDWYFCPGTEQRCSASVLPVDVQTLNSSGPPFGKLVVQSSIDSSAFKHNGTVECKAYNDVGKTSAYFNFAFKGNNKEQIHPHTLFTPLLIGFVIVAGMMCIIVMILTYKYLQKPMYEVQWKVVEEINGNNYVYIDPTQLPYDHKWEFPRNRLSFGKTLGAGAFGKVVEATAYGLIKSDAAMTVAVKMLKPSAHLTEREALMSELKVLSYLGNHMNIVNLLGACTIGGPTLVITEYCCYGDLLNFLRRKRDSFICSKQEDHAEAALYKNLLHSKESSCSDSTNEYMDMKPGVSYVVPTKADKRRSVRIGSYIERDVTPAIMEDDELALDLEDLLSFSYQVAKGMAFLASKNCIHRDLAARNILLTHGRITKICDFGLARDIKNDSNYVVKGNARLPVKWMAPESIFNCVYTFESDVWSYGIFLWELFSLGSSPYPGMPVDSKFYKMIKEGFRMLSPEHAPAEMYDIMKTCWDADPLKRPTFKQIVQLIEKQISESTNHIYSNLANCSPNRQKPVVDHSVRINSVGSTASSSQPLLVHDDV
value-kind: inhibition at 1 µM (%)

Take a look at these entries with their results.
>>> print(df.to_string())
                                   molecule          value_kind  obs_value
0  CCCCN(CCCC)CCNC(=O)Nc1ccc(Oc2ccnc3cc(OC)c(OC)cc23)cc1  inhibition at 1 µM         32
1  CCCC(CCN1CCCCC1)OC(=O)Nc1ccc(Oc2ncnc3cc(OC)c(OC)cc23)cc1 (stereo not shown)  inhibition at 1 µM         25
2  COc1cc(Oc2ncnc3cc(OC)c(OC)cc23)ccc1NC(=O)NCCCN1CCN(C)CC1  inhibition at 1 µM         28
3  CCCCOc1ccc(C(=O)NC(=S)Nc2ccc(Oc3ccnc4cc(OC)c(OC)cc34)cc2)cc1  inhibition at 1 µM         23
4  COc1cc2ncnc(Oc3ccc(NC(=S)NC(=O)c4cc(C)oc4C)cc3)c2cc1OC  inhibition at 1 µM         19
5  COc1cc2ncnc(Oc3ccc(NC(=O)N4CCN(Cc5ccccc5)CC4)cc3)c2cc1OC  inhibition at 1 µM         11
6  COc1cc2ncnc(Oc3ccc(NC(=S)NCCCN4CCCC4=O)cc3)c2cc1OC  inhibition at 1 µM         41
7  COc1cc2ncnc(Oc3ccc(NC(=S)NCCCN4CCCC4)cc3)c2cc1OC  inhibition at 1 µM         34

1 = COc1cc2nccc(Oc3ccc(NC(=O)NC4CCN(Cc5ccccc5)CC4)cc3Cl)c2cc1OC
2 = COc1cc2nccc(Oc3ccc(NC(=O)NC4CCN(Cc5ccc(C(C)(C)C)cc5)C4)cc3)c2cc1OC (stereo not shown)
3 = COc1cc2nccc(Oc3ccc(NC(=S)NC(=O)C4(C)CC4(Cl)Cl)cc3Cl)c2cc1OC (stereo not shown)
Put the items in order so that reported inhibition at 1 µM rises from first to last. List the labels, following the order given in the request.
1, 2, 3

---

target: c-kit (Homo sapiens, UniProt P10721); construct: MO7e (human megakaryocytic leukemia cell line) which had been arrested for 20 hr; endogenous in cells; host or cells: MO7e human megakaryocytic leukemia cell line; experiment: Inhibitory activity against c-kit autophosphorylation (MO7e cells, h-SCF); type: cell-based; details: MO7e cells, h-SCF 50 ng/ml; read-out: c-kit IC50
pIC50: −log10 of the molar value.
value-kind: pIC50

Some compounds with known pIC50 results, for comparison:
In [3]: df
Out[3]:
                                   compound                   experimental_target  obs_value
0  COc1cc2nccc(Oc3ccc(NC(=O)OCCCSc4ccc(C(C)(C)C)cc4)cc3)c2cc1OC  c-kit (Homo sapiens, UniProt P10721)       6.41
1  COc1ccc(COC(=O)Nc2ccc(Oc3ncnc4cc(OC)c(OC)cc34)cc2Cl)cc1OC  c-kit (Homo sapiens, UniProt P10721)       6.45
2  COc1cc2nccc(Oc3ccc(NC(=O)OCc4ccccc4Cl)c(C)c3C)c2cc1OC  c-kit (Homo sapiens, UniProt P10721)       7.24
3  COc1cc2nccc(Oc3cc(C)c(NC(=O)OCCCOc4ccccc4Cl)cc3C)c2cc1OC  c-kit (Homo sapiens, UniProt P10721)       7.03
4  COc1cc2nccc(Oc3cc(C)c(NC(=O)OCc4ccc(F)cc4)cc3C)c2cc1OC  c-kit (Homo sapiens, UniProt P10721)       6.97

P = COc1cc2nccc(Oc3ccc(NC(=O)OC(C)c4ccccc4Cl)cc3)c2cc1OC (centres unmarked)
Q = COc1cc2nccc(Oc3ccc(NC(=O)OCCCOc4ccccc4Cl)c(C)c3C)c2cc1OC
Higher pIC50: P or Q ? Give the chosen item's label as your response.
Q
(Q: 7.24, P: 6.87)
